Listed here: items and their measured pEC50.
# TESTED_TARGET: AMPK
# ASSAY_INFO: AMPK activation, enzyme-linked immunosorbent assay
# Format: biochemical
# CONDITIONS_USED: Table 2, AMPK activation, ELISA
pEC50: −log10 of the molar value.

N#Cc1ccc(CN2CC[C@H](NC(=O)c3ccc(OC4CCN(c5ccc(C(F)(F)F)cc5)CC4)cn3)C2)cc1 : > 7.00
O=C(NC1CCN(Cc2ccccc2)CC1)c1ccc(OC2CCN(c3ccc(C(F)(F)F)cc3)CC2)cn1 : 5.30 to 6.00
O=C(NC1CCN(Cc2ccncc2)CC1)c1cncc(OC2CCN(c3ccc(C(F)(F)F)cc3)CC2)c1 : > 7.00
O=C(NC1CCN(Cc2ccc(F)cc2)CC1)c1cncc(OC2CCN(c3ccc(C(F)(F)F)cc3)CC2)c1 : > 7.00
O=C(NC1CCN(Cc2ccncc2)CC1)c1cc(OC2CCN(c3ccc(C(F)(F)F)cc3)CC2)ccn1 : 6.30 to 7.00

What does the record list as pEC50 for CC(C)(C)OC(=O)N1CCC(NC(=O)c2cc(OC3CCN(c4ccc(C(F)(F)F)cc4)CC3)ccn2)CC1 ?
6.00 to 6.30

Quick one: pEC50 for O=C(NC1CCN(Cc2ccc(F)cc2)CC1)c1ccnc(OC2CCN(c3ccc(C(F)(F)F)cc3)CC2)c1 ?
5.30 to 6.00

Need pEC50, item N#Cc1ccc(CN2CCC(NC(=O)c3ccc(OC4CCN(c5ccc(C(F)(F)F)cc5)CC4)cn3)CC2)cc1
> 7.00

Requested field: pEC50. Item: N#Cc1ccc(CN2CCC(NC(=O)c3ccc(OC4CCN(c5ccc(C#N)cc5)CC4)cn3)CC2)cc1
> 7.00

Look at this compound and give its reported pEC50. CC(C)(C)OC(=O)N1CCC(NC(=O)c2ccnc(OC3CCN(c4ccc(C(F)(F)F)cc4)CC3)c2)CC1
5.30 to 6.00

# pEC50 lookup, item N#Cc1ccc(CN2CCC(NC(=O)c3cncc(OC4CCN(c5ccc(C(F)(F)F)cc5)CC4)c3)CC2)cc1
> 7.00

Looking for the measured pEC50 of N#Cc1ccc(N2CCC(Oc3ccc(C(=O)NC4CCN(Cc5cccnc5)CC4)nc3)CC2)cc1 , can you help?
6.30 to 7.00

Need pEC50, item CN(C)c1ccc(CN2CCC(NC(=O)c3ccc(OC4CCN(c5ccc(C(F)(F)F)cc5)CC4)cn3)CC2)cc1
6.30 to 7.00

Name the recorded pEC50 for O=C(NC1CCN(Cc2ccncc2)CC1)c1ccc(OC2CCN(c3ccc(C(F)(F)F)cc3)CC2)nc1 .
> 7.00

Which pEC50 value is on record for O=C(N[C@H]1CCNC1)c1ccc(OC2CCN(c3ccc(C(F)(F)F)cc3)CC2)cn1 ?
< 5.00

Values were extracted from patent US9174964B2.
